Method description: Liver-to-plasma partitioning (Kp)
Type: in vivo, rat
Study conditions: male, Sprague Dawley (Crl:CD(SD)), rat, liver and plasma, po, 10 mg/kg/day, PFHxSA 10 mg/kg/day oral 5 days; male; individual rats; read-out: Male Partition Coefficient (Kp), liver-plasma
Observation type: Kp at 120 h
Lab note: record just the number, no unit beside it.

q: Could you please provide reported Kp at 120 h for NS(=O)(=O)C(F)(F)C(F)(F)C(F)(F)C(F)(F)C(F)(F)C(F)(F)F [PFHxSA, Perfluorohexanesulfonamide] ? Thanks!
a: 0.191

----------
Method description: Liver-to-plasma partitioning (Kp)
Type: in vivo, rat
Study conditions: female, Sprague Dawley (Crl:CD(SD)), rat, liver and plasma, po, 0.3 mg/kg/day, PFHxSA 0.3 mg/kg/day oral 5 days; female rats; mean ± SD; read-out: PFHxSA liver-to-plasma Kp, Female Rats
Observation type: Kp at 120 h
I only need the number, thanks.

q: Please look at this molecule and report its Kp at 120 h: NS(=O)(=O)C(F)(F)C(F)(F)C(F)(F)C(F)(F)C(F)(F)C(F)(F)F [PFHxSA, Perfluorohexanesulfonamide]
a: 0.431

----------
Method description: Liver dosimetry of PFHxSA and PFHxS by targeted LC/MS/MS
Assay type: in vivo, rat
Study conditions: female, Sprague Dawley (Crl:CD(SD)), rat, liver, oral, 30 mg/kg/day, PFHxSA 30 mg/kg/day oral 5 days; female rats; mean ± SD; read-out: PFHxSA Female Liver Conc.
Observation type: concentration at 24 h (µM)
API: value field is a number in µM; no unit string.

q: State its concentration at 24 h: NS(=O)(=O)C(F)(F)C(F)(F)C(F)(F)C(F)(F)C(F)(F)C(F)(F)F [PFHxSA, Perfluorohexanesulfonamide]
a: 26.1

----------
Method description: Liver dosimetry of PFHxSA and PFHxS by targeted LC/MS/MS
Type: in vivo, rat
Study conditions: female, Sprague Dawley (Crl:CD(SD)), rat, liver, oral, 0.3 mg/kg/day, PFHxSA 0.3 mg/kg/day oral 5 days; female rats; mean ± SD; read-out: PFHxSA Female Liver Conc.
Observation type: concentration at 24 h (nM)
Report only the number, with the unit nM understood.

q: Consider the compound NS(=O)(=O)C(F)(F)C(F)(F)C(F)(F)C(F)(F)C(F)(F)C(F)(F)F [PFHxSA, Perfluorohexanesulfonamide] and give its recorded concentration at 24 h.
a: 1690

----------
Method description: Liver-to-plasma partitioning (Kp)
Assay type: in vivo, rat
Study conditions: female, Sprague Dawley (Crl:CD(SD)), rat, liver and plasma, po, 0.1 mg/kg/day, PFHxSA 0.1 mg/kg/day oral 5 days; female; individual rats; read-out: Female Partition Coefficient (Kp), liver-plasma
Observation type: Kp at 120 h
Could you respond with only the numeric value?

q: Give the value of Kp at 120 h reported for the following: NS(=O)(=O)C(F)(F)C(F)(F)C(F)(F)C(F)(F)C(F)(F)C(F)(F)F [PFHxSA, Perfluorohexanesulfonamide]
a: 0.424

----------
Method description: Liver-to-plasma partitioning (Kp)
Format: in vivo, rat
Study conditions: female, Sprague Dawley (Crl:CD(SD)), rat, liver and plasma, po, 30 mg/kg/day, PFHxSA 30 mg/kg/day oral 5 days; female; individual rats; read-out: Female Partition Coefficient (Kp), liver-plasma
Observation type: Kp at 120 h
Respond using a number only.

q: Give Kp at 120 h for NS(=O)(=O)C(F)(F)C(F)(F)C(F)(F)C(F)(F)C(F)(F)C(F)(F)F [PFHxSA, Perfluorohexanesulfonamide]
a: 0.154
